# systemUnderTest: T1, human IL-23 (human, UniProt Q9NPF7 20-189; P29460 23-328)
# T1 construct: Heterodimer of p19 and p40; also called hIL-23
# T1 sequence 1: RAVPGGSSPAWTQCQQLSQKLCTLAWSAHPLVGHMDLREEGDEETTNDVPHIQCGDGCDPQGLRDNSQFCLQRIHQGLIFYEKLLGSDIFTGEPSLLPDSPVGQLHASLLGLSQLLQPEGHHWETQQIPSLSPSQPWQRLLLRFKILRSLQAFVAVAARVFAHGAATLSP
# T1 sequence 2: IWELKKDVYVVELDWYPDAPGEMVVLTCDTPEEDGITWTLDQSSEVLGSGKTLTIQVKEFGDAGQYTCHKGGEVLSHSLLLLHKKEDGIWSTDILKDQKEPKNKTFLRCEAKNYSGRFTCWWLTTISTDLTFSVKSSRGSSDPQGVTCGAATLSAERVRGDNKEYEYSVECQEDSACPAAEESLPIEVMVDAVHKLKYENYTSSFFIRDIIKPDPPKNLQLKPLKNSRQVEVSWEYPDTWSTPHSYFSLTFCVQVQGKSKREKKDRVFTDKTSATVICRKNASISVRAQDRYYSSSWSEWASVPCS
# assayRemarks: SPR Biacore, purified mAb captured on anti-human IgG, human IL-23 64-0.062 nM
measuredProperty: pKd
Conceptually, pKd converts a concentration in mol/L into minus its log10.

The cases that follow already have their pKd on record.
| binder | pKd |
| --- | --- |
| A5M12 (antibody, human IgG1, V domains shown) VH: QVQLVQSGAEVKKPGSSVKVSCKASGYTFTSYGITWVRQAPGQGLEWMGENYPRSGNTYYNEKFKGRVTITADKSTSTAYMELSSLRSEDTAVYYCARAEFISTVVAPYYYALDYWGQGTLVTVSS VL: DIVMTQSPDSLAVSLGERATINCKASKKVTIYGSTSALHWYQQKPGQPPKLIYNGAKPESGVPDRFSGSGSGTDFTLTISSLQAEDVAVYYCLQNKEVPYTFGGGTKVEIK | 10.10 |
| A3M0 (antibody, human IgG1, kappa, V domains shown, human gamma1 and kappa constant regions; Tested as HEK supernatant and as purified antibody; also called A3M0 purified) VH: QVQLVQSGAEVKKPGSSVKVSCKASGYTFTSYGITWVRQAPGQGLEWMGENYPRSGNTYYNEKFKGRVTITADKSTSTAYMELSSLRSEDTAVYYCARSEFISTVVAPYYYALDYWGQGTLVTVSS VL: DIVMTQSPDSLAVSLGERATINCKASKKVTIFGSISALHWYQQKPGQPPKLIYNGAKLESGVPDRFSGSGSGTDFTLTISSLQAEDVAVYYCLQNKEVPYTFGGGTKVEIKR | 9.73 |
| A24AM4 (antibody, human IgG1, kappa, V domains shown) VH: QVQLVQSGAEVKKPGSSVKVSCKASGYTFTSYGITWVRQAPGQGLEWMGENYPRSGNIYYNEKFKGRVTITADKSTSTAYMELSSLRSEDTAVYYCARAEFISTVVAPYYYALDYWGQGTLVTVSS VL: DIVMTQSPDSLAVSLGERATINCKASKKVTIFGSTSALHWYQQKPGQPPKLIYNGAKPESGVPDRFSGSGSGTDFTLTISSLQAEDVAVYYCLQNKEVPYTFGGGTKVEIKR | 10.19 |
| A5M21 (antibody, human IgG1, kappa, V domains shown) VH: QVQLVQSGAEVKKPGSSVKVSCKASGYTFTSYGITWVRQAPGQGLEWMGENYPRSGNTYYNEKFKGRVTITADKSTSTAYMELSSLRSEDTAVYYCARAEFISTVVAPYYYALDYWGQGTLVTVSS VL: DIVMTQSPDSLAVSLGERATINCKASKKVTIYGSTSALHWYQQKPGQPPKLIYNLAKPESGVPDRFSGSGSGTDFTLTISSLQAEDVAVYYCLQNKEVPYTFGGGTKVEIKR | 10.19 |
| A24AM18 (antibody, human IgG1, kappa, V domains shown) VH: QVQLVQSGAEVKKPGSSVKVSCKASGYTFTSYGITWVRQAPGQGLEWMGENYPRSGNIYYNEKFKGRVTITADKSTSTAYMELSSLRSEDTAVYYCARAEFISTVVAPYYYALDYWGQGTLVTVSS VL: DIVMTQSPDSLAVSLGERATINCKASKKVTIFGSTSALHWYQQKPGQPPKLIYNLAKPESGVPDRFSGSGSGTDFTLTISSLQAEDVAVYYCLQNKEVPYTFGGGTKVEIKR | 10.28 |

Sure, the documented pKd for A5M0 (antibody, human IgG1, kappa, V domains shown) VH: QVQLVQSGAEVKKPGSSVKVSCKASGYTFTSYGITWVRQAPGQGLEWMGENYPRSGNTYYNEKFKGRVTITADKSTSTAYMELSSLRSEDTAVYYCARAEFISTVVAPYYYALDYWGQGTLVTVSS VL: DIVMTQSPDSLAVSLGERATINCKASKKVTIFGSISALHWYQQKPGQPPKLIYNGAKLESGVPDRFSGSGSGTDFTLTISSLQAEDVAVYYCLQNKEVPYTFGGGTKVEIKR is 9.94

The measured pKd associated with A5M20 (antibody, human IgG1, kappa, V domains shown) VH: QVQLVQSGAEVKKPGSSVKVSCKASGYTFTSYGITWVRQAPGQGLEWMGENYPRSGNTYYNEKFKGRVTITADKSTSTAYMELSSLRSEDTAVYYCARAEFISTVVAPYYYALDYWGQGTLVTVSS VL: DIVMTQSPDSLAVSLGERATINCKASKKVTIFGSISALHWYQQKPGQPPKLIYNLAKLESGVPDRFSGSGSGTDFTLTISSLQAEDVAVYYCLQNKEVPYTFGGGTKVEIKR reads 10.21
